Target: human complement protein C3
measured endpoint: ED50 80% human plasma (60 min, nM), C3 cleavage
Number in nM, nothing else.

These solved cases illustrate the format of a correct answer.
Q38H/I41A/D60bV/F60eR/Y60gW/F97T/ins97aE/T98G/F99L/C122S/G151H/Q175L/Q192D (protein) VVGGTDADEGEWPWQVSLHALGHGHACGASLISPNWLVSAAHCYIDVRGRRWSDPTQWTAFLGLHDQSQRSAPGVQERRLKRIISHPFFNDTEGLDYDIALLELEKPAEYSSMVRPISLPDASHVFPAGKAIWVTGWGHTQYGGTHALILQKGEIRVINQTTCENLLPQLITPRMMCVGFLSGGVDSCDGDSGGPLSSVEADGRIFQAGVVSWGDGCAQRNKPGVYTRLPLFRDWIKENTGV = 32
Q38H/I41S/D60bT/F60eS/Y60gW/D96Y/F97E/ins97aV/T98G/F99L/C122S/G151H/Q175L/Q192D (protein) VVGGTDADEGEWPWQVSLHALGHGHSCGASLISPNWLVSAAHCYIDTRGSRWSDPTQWTAFLGLHDQSQRSAPGVQERRLKRIISHPFFNYEVGLDYDIALLELEKPAEYSSMVRPISLPDASHVFPAGKAIWVTGWGHTQYGGTHALILQKGEIRVINQTTCENLLPQLITPRMMCVGFLSGGVDSCDGDSGGPLSSVEADGRIFQAGVVSWGDGCAQRNKPGVYTRLPLFRDWIKENTGV = 38

[in] Entry under review: Q38H/I41A/D60bV/F60eR/Y60gW/F97T/ins97aE/T98G/F99L/C122S/G151N/Q175L/Q192D (protein) VVGGTDADEGEWPWQVSLHALGHGHACGASLISPNWLVSAAHCYIDVRGRRWSDPTQWTAFLGLHDQSQRSAPGVQERRLKRIISHPFFNDTEGLDYDIALLELEKPAEYSSMVRPISLPDASHVFPAGKAIWVTGWGHTQYGGTNALILQKGEIRVINQTTCENLLPQLITPRMMCVGFLSGGVDSCDGDSGGPLSSVEADGRIFQAGVVSWGDGCAQRNKPGVYTRLPLFRDWIKENTGV . Reported ED50 80% human plasma (60 min, nM), C3 cleavage?
[out] 52

[in] And what about the protein Q38H/I41S/D60bT/F60eS/Y60gW/D96K/F97G/ins97aV/T98P/F99L/C122S/G151H/Q175L/Q192D (protein) VVGGTDADEGEWPWQVSLHALGHGHSCGASLISPNWLVSAAHCYIDTRGSRWSDPTQWTAFLGLHDQSQRSAPGVQERRLKRIISHPFFNKGVPLDYDIALLELEKPAEYSSMVRPISLPDASHVFPAGKAIWVTGWGHTQYGGTHALILQKGEIRVINQTTCENLLPQLITPRMMCVGFLSGGVDSCDGDSGGPLSSVEADGRIFQAGVVSWGDGCAQRNKPGVYTRLPLFRDWIKENTGV ?
[out] 25

[in] And what about the protein Q38H/I41S/D60bT/F60eS/Y60gW/D96K/F97D/ins97aA/T98P/F99L/C122S/G151N/Q175L/Q192D (protein) VVGGTDADEGEWPWQVSLHALGHGHSCGASLISPNWLVSAAHCYIDTRGSRWSDPTQWTAFLGLHDQSQRSAPGVQERRLKRIISHPFFNKDAPLDYDIALLELEKPAEYSSMVRPISLPDASHVFPAGKAIWVTGWGHTQYGGTNALILQKGEIRVINQTTCENLLPQLITPRMMCVGFLSGGVDSCDGDSGGPLSSVEADGRIFQAGVVSWGDGCAQRNKPGVYTRLPLFRDWIKENTGV ?
[out] 44
